Values from PubChem BioAssay (NCI)

# ASSAY TEXT: NCI Yeast Anticancer Drug Screen. Data for the cln2 rad14 strain (AID 165);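 further: 0% = growth equal to vehicle treated cultures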
# MEASUREMENT PARAMETERS: S. cerevisiae cln2 rad14 strain, at 50.0 µM, active compounds read high
Compounds without any hit were thinned out: in the full panel of roughly 79,000, 15% have a hit. Calls of active or inactive are those of the source. No stated cut-off is given here; in the data, active means growth inhibition above about 70%; inactive means the rest.
compounds and their reported growth inhibition

Some compounds with known growth inhibition results, for comparison:
# COMPOUND, growth inhibition
records = [
    ("O=C(Nc1ccc(C(=O)Nc2ccc3c(O)cc(S(=O)(=O)O)cc3c2)cc1)c1ccccc1", "1.4% (inactive)"),
    ("CC1=C(C)C(N2CCOCC2)CS(=O)(=O)O1 (stereo unspecified)", "16.4% (inactive)"),
    ("COc1cc(/C=C/C(=N\\NC(=O)c2ccccc2)c2sc(Nc3ccc(Cl)c(Cl)c3)nc2C)ccc1O", "88.2% (active)"),
]

Given `CN(C)CCCCCNc1c2ccccc2nc2cccc([N+](=O)[O-])c12` , respond with its growth inhibition.
92.3% (active)

Given `N#CSc1ccc(Nc2ccc(SC#N)cc2)cc1` , respond with its growth inhibition.
97.7% (active)

Given `O=C1c2ccccc2C(=O)c2c(NCCNCCO)ccc(O)c21` , respond with its growth inhibition.
49.7% (inactive)

Given `COc1ccc(/C=N/NS(=O)(=O)c2ccccc2)cc1` , respond with its growth inhibition.
98% (active)

Given `C1=C(c2ccccc2)OC(c2ccccc2)=C[P+]1(c1ccccc1)c1ccccc1` , respond with its growth inhibition.
86.8% (active)

Given `COc1ccc(-c2nnc(C)nc2-c2ccc(OC)cc2)cc1` , respond with its growth inhibition.
17.6% (inactive)

Given `Fc1ccc(NC2=NCCN=C(Nc3ccc(F)cc3)SS2)cc1` , respond with its growth inhibition.
69.8% (inactive)

Given NC(CSC1(c2ccc(Cl)cc2)c2ccccc2-c2ccccc21)C(=O)O (stereo unspecified) , respond with its growth inhibition.
43.8% (inactive)
